- Measurement Target: human recombinant adrenergic α1D receptor (Homo sapiens, UniProt P25100)
- Construct: expressed in transfected cells; host or cells: human embryonic kidney (HEK-293) cells
- Sequence (P25100 whole entry): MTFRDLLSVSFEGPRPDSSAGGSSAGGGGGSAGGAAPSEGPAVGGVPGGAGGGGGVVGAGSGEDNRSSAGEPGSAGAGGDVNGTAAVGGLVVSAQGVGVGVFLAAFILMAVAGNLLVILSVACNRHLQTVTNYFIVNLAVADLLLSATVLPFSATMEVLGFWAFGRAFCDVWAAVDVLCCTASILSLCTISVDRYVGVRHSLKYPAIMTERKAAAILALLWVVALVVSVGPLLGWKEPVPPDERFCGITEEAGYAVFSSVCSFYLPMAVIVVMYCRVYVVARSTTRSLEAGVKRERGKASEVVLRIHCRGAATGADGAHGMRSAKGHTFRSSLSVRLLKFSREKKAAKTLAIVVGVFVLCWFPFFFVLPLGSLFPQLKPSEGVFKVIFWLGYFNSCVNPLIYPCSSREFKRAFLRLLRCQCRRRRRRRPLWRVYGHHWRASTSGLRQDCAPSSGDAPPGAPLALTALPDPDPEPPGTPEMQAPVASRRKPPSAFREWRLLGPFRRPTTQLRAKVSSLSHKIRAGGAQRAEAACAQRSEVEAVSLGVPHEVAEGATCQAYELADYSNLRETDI
- Assay Notes: Adrenergic α1D radioligand binding ([3H]Prozosin)
- Assay Context: percent inhibition of specific binding; compound at 1 μM; read-out: Inhibition of ligand binding, Adrenergic α1D
Reported Property: inhibition at 1 µM (%)
Give a bare numeral; the unit % is implied.

Quick one: inhibition at 1 µM for CN1CCc2c(c3cc(Cl)ccc3n2C/C=C/c2ccc(F)cc2)C1 [Compound 126] ?
50

Quick one: inhibition at 1 µM for C/C=C/C(=C\n1c2c(c3cc(Cl)ccc31)CN(C)CC2)c1ccc(F)cc1 [Compound 204] ?
67

Quick one: inhibition at 1 µM for COc1ccc(C(C)(O)Cn2c3c(c4cc(Cl)ccc42)CN(C)CC3)cc1F (stereo not drawn) [Compound 59] ?
81

Quick one: inhibition at 1 µM for CCC(O)(Cn1c2c(c3cc(Cl)ccc31)CN(C)CC2)c1ccc(F)cc1 (stereo not drawn) [Compound 78] ?
49

Quick one: inhibition at 1 µM for CCOC(=O)/C=C(/Cn1c2c(c3cc(C)ccc31)CN(C)CC2)c1ccccc1 [Compound No. 347] ?
90

Quick one: inhibition at 1 µM for COc1ccc(C(C)(O)Cn2c3c(c4cc(C)ccc42)CN(C)CC3)cc1F (stereo not drawn) [Compound 173] ?
58

Quick one: inhibition at 1 µM for CN1CCc2c(c3cc(Cl)ccc3n2/C=C(\c2ccc(F)cc2)C2CC2)C1 [Compound 203] ?
89

Quick one: inhibition at 1 µM for CCCCC(O)(Cn1c2c(c3cc(Cl)ccc31)CN(C)CC2)c1ccc(F)cc1 (stereo not drawn) [Compound 178] ?
46

Quick one: inhibition at 1 µM for Cc1ccc2c(c1)c1c(n2CC(C)(O)c2ccc(F)cc2)CCN(C)C1 (stereo not drawn) [Compound 55] ?
64

Quick one: inhibition at 1 µM for C/C(=C\n1c2c(c3cc(Cl)ccc31)CN(C)CC2)c1ccccc1F [Compound 213] ?
76

Quick one: inhibition at 1 µM for C/C(=C\n1c2c(c3cc(C)ccc31)CN(C)CC2)c1ccncc1 [Compound 88] ?
78

Quick one: inhibition at 1 µM for CN1CCc2c(c3cc(Cl)ccc3n2C/C=C/c2ccncc2)C1 [Compound 127] ?
46

Quick one: inhibition at 1 µM for C/C(=C\n1c2c(c3cc(C)ccc31)CN(C)CC2)c1ccc(F)cc1 [Compound 87] ?
99

Quick one: inhibition at 1 µM for C/C(=C\n1c2c(c3cc(Cl)ccc31)CN(C)CC2)c1ccc(C)nc1 [Compound 89] ?
87

Quick one: inhibition at 1 µM for C=C(Cn1c2c(c3cc(Cl)ccc31)CN(C)CC2)c1cccnc1 [Compound 133] ?
55

Quick one: inhibition at 1 µM for CN1CCc2c(c3cc(Cl)ccc3n2CC(O)c2cccnc2)C1 (stereo not drawn) [Compound 56] ?
43

Quick one: inhibition at 1 µM for C=C(Cn1c2c(c3cc(C)ccc31)CN(C)CC2)c1ccc(F)cc1 [Compound 132] ?
93

Quick one: inhibition at 1 µM for C=C(Cn1c2c(c3cc(Cl)ccc31)CN(C)CC2)c1ccc(OC)c(F)c1 [Compound 140] ?
84

Quick one: inhibition at 1 µM for COc1ccc(C(C)(O)Cn2c3c(c4cc(C)ccc42)CN(C)CC3)cc1 (stereo not drawn) [Compound 174] ?
57

Quick one: inhibition at 1 µM for CNC(=O)C/C(=C\n1c2c(c3cc(C)ccc31)CN(C)CC2)c1ccc(F)cc1 [Compound 207] ?
100

Quick one: inhibition at 1 µM for COc1ccc(C(C)(O)Cn2c3c(c4cc(Cl)ccc42)CN(C)CC3)cc1 (stereo not drawn) [Compound 57] ?
84

Quick one: inhibition at 1 µM for Cc1ccc2c(c1)c1c(n2CC(O)c2ccncc2)CCN(C)C1 (stereo not drawn) [Compound 180] ?
60

Quick one: inhibition at 1 µM for CN1CCc2c(c3cc(Cl)ccc3n2C/C(=C\CCO)c2ccc(F)cc2)C1 [Compound No. 348] ?
35

Quick one: inhibition at 1 µM for CCN1CCc2c(c3ccccc3n2CC(O)c2ccc(C)cc2)C1 (racemic) [Compound 44] ?
35

Quick one: inhibition at 1 µM for C/C(=C/n1c2c(c3cc(Cl)ccc31)CN(C)CC2)c1ccccc1F [Compound 212] ?
78

Quick one: inhibition at 1 µM for CN1CCc2c(c3cc(Cl)ccc3n2/C=C(/c2ccc(F)cc2)C2CCC2)C1 [Compound 206] ?
102

Quick one: inhibition at 1 µM for Cc1ccc(C(C)(O)Cn2c3c(c4cc(Cl)ccc42)CN(C)CC3)cn1 (stereo not drawn) [Compound 47] ?
82

Quick one: inhibition at 1 µM for COc1ccc(/C(C)=C/n2c3c(c4cc(Cl)ccc42)CN(C)CC3)cc1 [Compound 92] ?
99

Quick one: inhibition at 1 µM for CCCC/C(=C\n1c2c(c3cc(Cl)ccc31)CN(C)CC2)c1ccc(F)cc1 [Compound 208] ?
89

Quick one: inhibition at 1 µM for Cc1ccc2c(c1)c1c(n2CC(C)(O)c2ccc(C)nc2)CCN(C)C1 (stereo not drawn) [Compound 52] ?
39

====

- Measurement Target: human recombinant serotonin (5-Hydroxytryptamine) 5-HT2A receptor (Homo sapiens, UniProt P28223)
- Construct: expressed in transfected cells; host or cells: Chinese hamster ovary (CHO-K1) cells
- Sequence (P28223 whole entry): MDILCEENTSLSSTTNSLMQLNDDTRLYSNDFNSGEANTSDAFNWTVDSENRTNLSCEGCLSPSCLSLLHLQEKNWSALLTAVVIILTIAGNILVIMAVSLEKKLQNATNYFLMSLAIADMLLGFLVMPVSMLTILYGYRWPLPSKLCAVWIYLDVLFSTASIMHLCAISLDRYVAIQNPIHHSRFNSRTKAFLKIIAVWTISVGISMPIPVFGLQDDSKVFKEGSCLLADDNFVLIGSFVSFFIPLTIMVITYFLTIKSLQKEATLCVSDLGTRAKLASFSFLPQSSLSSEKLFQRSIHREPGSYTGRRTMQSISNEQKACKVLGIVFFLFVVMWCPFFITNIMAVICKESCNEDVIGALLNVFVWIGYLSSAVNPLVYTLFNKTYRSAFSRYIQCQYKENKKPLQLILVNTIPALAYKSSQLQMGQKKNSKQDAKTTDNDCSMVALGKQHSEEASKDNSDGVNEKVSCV
- Assay Notes: Serotonin 5-HT2A radioligand binding ([3H]Ketanserin)
- Assay Context: read-out: Inhibition of ligand binding, Serotonin 5-HT2A (percent inhibition of specific binding), compound at 0.1 μM
Reported Property: inhibition at 0.1 µM (%)
Give a bare numeral; the unit % is implied.

Quick one: inhibition at 0.1 µM for COc1ccc([C@@](C)(O)Cn2c3c(c4cc(C)ccc42)CN(C)CC3)cc1 [Compound 192] ?
91

Quick one: inhibition at 0.1 µM for CN1CCc2c(c3cc(Cl)ccc3n2CC(C)(O)c2ccncn2)C1 (centres unmarked) [Compound 198] ?
23

Quick one: inhibition at 0.1 µM for C/C(=C\n1c2c(c3cc(C)ccc31)CN(C(C)C)CC2)c1ccncc1 [Compound 272] ?
62

Quick one: inhibition at 0.1 µM for C/C(=C\n1c2c(c3ccccc31)CN(C)CC2)c1ccncc1 [Compound 217] ?
96

Quick one: inhibition at 0.1 µM for CC(=Cn1c2c(c3cc(Cl)ccc31)CN(C)CC2)c1ccc(Cl)cc1Cl (stereo in doubt) [Compound 111] ?
86

Quick one: inhibition at 0.1 µM for C/C(=C\n1c2c(c3cc(Cl)ccc31)CN(C)C(C)C2)c1ccncc1 (centres unmarked) [Compound 275] ?
93

Quick one: inhibition at 0.1 µM for Cc1ccc2c(c1)c1c(n2/C=C(/c2ccncc2)C(C)(C)C)CCN(C)C1 [Compound 280] ?
83

Quick one: inhibition at 0.1 µM for C/C(=C\n1c2c(c3ccccc31)CN(C)CC2)c1ccc(F)cc1 [Compound 205] ?
104

====

- Measurement Target: human recombinant adrenergic α1D receptor (Homo sapiens, UniProt P25100)
- Construct: expressed in transfected cells; host or cells: human embryonic kidney (HEK-293) cells
- Assay Notes: Adrenergic α1D radioligand binding ([3H]Prozosin)
- Assay Context: compound at 1 μM; read-out: Inhibition of ligand binding, Adrenergic α1D (percent inhibition of specific binding)
Label Y when inhibition at 1 µM is at or above 80%; otherwise label N.

Determine whether this compound has inhibition at 1 µM no lower than 80%: "COC(=O)c1ccc2c(c1)c1c(n2C#Cc2ccc(F)cc2)CCN(C)C1"
N

Determine whether this compound has inhibition at 1 µM no lower than 80%: "Cc1ccc2c(c1)c1c(n2C#Cc2ccc(Cl)cc2)CCN(C)C1"
N

Determine whether this compound has inhibition at 1 µM no lower than 80%: "Cc1ccc2c(c1)c1c(n2C#Cc2ccc(F)cc2)CCN(C)C1"
Y

Determine whether this compound has inhibition at 1 µM no lower than 80%: "CN1CCc2c(c3cc(Cl)ccc3n2C#Cc2ccc(F)cc2)C1"
Y

Determine whether this compound has inhibition at 1 µM no lower than 80%: "Cc1ccc2c(c1)c1c(n2C/C(=C/C(=O)O)c2ccc(F)cc2)CCN(C)C1"
N

Determine whether this compound has inhibition at 1 µM no lower than 80%: "CN1CCc2c(c3cc(C(=O)O)ccc3n2C#Cc2ccc(F)cc2)C1"
N

Determine whether this compound has inhibition at 1 µM no lower than 80%: "CCC/C=C(/Cn1c2c(c3cc(Cl)ccc31)CN(C)CC2)c1ccc(F)cc1"
N

Determine whether this compound has inhibition at 1 µM no lower than 80%: "Cc1ccc2c(c1)c1c(n2C#Cc2ccc(C)nc2)CCN(C)C1"
Y

Determine whether this compound has inhibition at 1 µM no lower than 80%: "Cc1ccc2c(c1)c1c(n2CC#Cc2ccccn2)CCN(C)C1"
N

Determine whether this compound has inhibition at 1 µM no lower than 80%: "CN1CCc2c(c3cc(Cl)ccc3n2C#Cc2ccc(Cl)cc2)C1"
N

Determine whether this compound has inhibition at 1 µM no lower than 80%: "CCOC(=O)/C=C(/Cn1c2c(c3cc(C)ccc31)CN(C)CC2)c1ccc(F)cc1"
Y

Determine whether this compound has inhibition at 1 µM no lower than 80%: "CNC(=O)c1ccc2c(c1)c1c(n2C#Cc2ccc(F)cc2)CCN(C)C1"
N
